Tested on: lung cancer (H299-GL, H522-GL, H647-GL, A549-GL, H1993, H1075-GL, H1373-GL H1703 cells)
Assay: toxicity by alamarBlue, lung cancer cell lines
Format: cell-based
Details: mean of 8 cell lines, 18 h exposure
Method: Dilutions of DMSO without compound were used as a control. After 18 hrs or 2 days, the cultures were pulsed with 6 μl of alamarBlue® (Invitrogen Inc. Grand Island, N.Y.) and incubated overnight. The alamarBlue® provides a cell growth indicator based on detection of metabolic activity. […] The fluorescence intensity was measured using a Synergy H1 Microplate Reader (Biotek Inc, Winooski, VT) and a dose-response curve established for IC50 determination.
QUANTITY: Estimated lethal doses (LD50) (µM)
Kindly answer with a numeric value in µM, unit omitted.

# MOLECULE, OBSERVED_MEASUREMENT
data = [
    ("COC(=O)CO[C@H]1[C@H](C)/C=C(/C)COCCCCC/C=C/[C@@H]1OC [Compound 42]", 741.2),
    ("CO[C@H]1/C=C/CCCCCOC/C(C)=C\\[C@@H](C)[C@@H]1OCC(=O)O [CME, Carboxymethyl migraether]", 553.9),
    ("CO[C@H]1/C=C/CCCCCOC/C(C)=C\\[C@@H](C)[C@@H]1OCCO [Compound 43]", 523.9),
    ("CNC(=O)CO[C@H]1[C@H](C)/C=C(/C)COCCCCC/C=C/[C@@H]1OC [Compound 44]", 299.7),
]

Now consider a different molecule.
API: value(readout=Estimated lethal doses (LD50), system=lung cancer (H299-GL, H522-GL, H647-GL, A549-GL, H1993, H1075-GL, H1373-GL H1703 cells)) for record CCNC(=O)O[C@H]1[C@H](C)/C=C(/C)COCCCCC/C=C/[C@@H]1OC [Compound 45]
446.9

###

System: multiple myeloma (RPMI8226, MM1S, ARP-GL, CAG-GL, OPM2-GL, SKO-007-GL, U266-GL, MM1R cells)
Test: toxicity by alamarBlue, multiple myeloma cell lines
Assay type: cell-based, human
Details: mean of 8 cell lines, 18 h exposure
Experimental: The toxicity of compounds 42-45 and their IC50 was determined on a panel of human tumor cell lines of multiple myeloma (RPMI8226, MM1S, MM1R, ARP-GL, CAG-GL, OPM2-GL, SKO-007-GL, U266-GL,) and lung cancer (H299-GL, H522-GL, H647-GL, A549-GL, A549-GL, HI993, H1075-GL, HI373, H17030) origin. […] The fluorescence intensity was measured using a Synergy H1 Microplate Reader (Biotek Inc, Winooski, VT) and a dose-response curve established for IC50 determination.
QUANTITY: Estimated lethal doses (LD50) (µM)
Please reply with the bare figure in µM and do not write the unit itself.

Study these solved cases before continuing.
# MOLECULE, OBSERVED_MEASUREMENT
rows = [
    ("CNC(=O)CO[C@H]1[C@H](C)/C=C(/C)COCCCCC/C=C/[C@@H]1OC [Compound 44]", 182.5),
    ("CCNC(=O)O[C@H]1[C@H](C)/C=C(/C)COCCCCC/C=C/[C@@H]1OC [Compound 45]", 275.6),
    ("COC(=O)CO[C@H]1[C@H](C)/C=C(/C)COCCCCC/C=C/[C@@H]1OC [Compound 42]", 515.2),
    ("CO[C@H]1/C=C/CCCCCOC/C(C)=C\\[C@@H](C)[C@@H]1OCCO [Compound 43]", 530.8),
    ("CO[C@H]1/C=C/CCCCCOC/C(C)=C\\[C@@H](C)[C@@H]1O [ME, migrastatin ether]", 794.8),
]

Which measured Estimated lethal doses (LD50) value corresponds to CO[C@H]1/C=C/CCCCCOC/C(C)=C\[C@@H](C)[C@@H]1OCC(=O)O [CME, Carboxymethyl migraether] ?
503.6

Source listed as patent US9303009B2.
